Known apparent KD of MS2 coat protein of a selection of sequences
Test system: MS2 coat protein
Assay: apparent KD of MS2 coat protein; designed switch direction (-1 OFF switch, 1 ON switch): -1; higher = weaker reporter binding
Conditions: Eterna round: R95; input ligand: none
The response must be a number in nM with no trailing unit.

# count of solved cases: 5
sequence code	apparent KD of MS2 coat protein (nM)
UAUGUAUACGUCAGGAUAUACGGUCCAGAUGGUAAGUAGAAGGGACAUGAGGAUCACCCAUGUAUAAUAAUAAU [AK 1] (puzzle: Brourd's mod of Exclusion 4)	22.5
CUGGUCCGAGGAUAUAUUAAGUGAUACAUGAGGAUCACCCAUGUAAUUUGAUGGAAGUAAAUAGAAGGCGGACUAG [Mat - Exclusion 5 - JL mod - D45] (puzzle: Exclusion 5)	74
AGUUCUAACACGAAAGUGUUAGUACAAUAAGCUUGUGAAACAUGAGGAUCACCCAUGUCCUCAUAAGCUCGUCUUAU [salish99_TOv2_r3_013] (puzzle: Sensor v3, turn-off variant 2)	14.7
ACAAGUUUUUUGUUUUUUAACAUGAGGAUCACCCAUGUAUUUUUAGAGGAUGUGGGAAUAAGAGCUCUUUGUCUUAU [JR_SV3TOV1_Sub097] (puzzle: Sensor v3, turn-off variant 1)	41.2
CGAAGUAGAAACCGAUCCUACAUGAGGAUCACCCAUGUAGCAAGACGUGCACGCGAAGCUCGUCAGACUACCAGAAC [salish99_TOv1_r3_013] (puzzle: Sensor v3, turn-off variant 1)	420

Request: Quick one: apparent KD of MS2 coat protein for CAUGGAACGUAGGAUAUCUCGCGGCUAGGCUGCAGAGAAGGACGCACAUGAGGAUCACCCAUGUGUGAUCCAAA [Tibiataus] (puzzle: Exclusion 6) ?
Result: 21.9

Request: Please do the same for UCCUCACAUGAGGAUCACCCAUGUCAGGAUAUACAAGAAAAUAACCGGAAAGAACGGAGUAGAAGGGACAUAAG [Xeontiorer] (puzzle: Exclusion 1) as well.
Result: 15.5

Request: Please do the same for CAGUACUGAGGAUAUACAUGAGGAUCACCCAUGUGUUCCAGCUAGGAAACUAGCAAAGGUAGAAGGCAGUACUG [salish99_ex3_r3_065] (puzzle: Exclusion 3) as well.
Result: 23.3

Request: Please do the same for UACCGGCGGACCGAGGCUUUUUGCUCGUCUUAUACUACAACAUGAGGAUCACCCAUGUGGUGGUGGUCCGUUGUAGU [JL ViennaUCT Bitein mod 5] (puzzle: Sensor v3, turn-off variant 2) as well.
Result: 16.2

Request: Please do the same for AGAAAGGCAGGAUAUCGAUAAUAAAACAUGAGGAUCACCCAUGUGAGGCCGCGUGUAACUCGAGAAGGGCUACACG [Biarquma] (puzzle: Exclusion 5) as well.
Result: 15.4

Request: Please do the same for CUGAGCAGACGGAAAUCCAACAUGAGGAUCACCCAUGUCUCAAAAGCUUUUUGCUUGUCUUAUUCUCCUCUGUUCUC [Edtile] (puzzle: Sensor v3, turn-off variant 1) as well.
Result: 12.9

----------
Tested on: MS2 coat protein
Test: apparent KD of MS2 coat protein; designed switch direction (-1 OFF switch, 1 ON switch): -1; higher = weaker reporter binding
Details: input ligand: FMN 200 uM
measured metric: apparent KD of MS2 coat protein (nM)
The response must be a number in nM with no trailing unit.

# count of solved cases: 4
sequence code	apparent KD of MS2 coat protein / nM
ACGAUGACAGAAAGAAGUCAAAAGACAUGAGGAUCACCCAUGUAGGAUAUGGCUACGAAAAGUAGUCAGAAGGACAUGUCAUCA [Omei Exc(NG) 3 Av3] (Eterna round: R96, puzzle: Exclusion NG 3)	13.5
GUCAGACGAGGAUAUAGAUUUAAGUACAUGAGGAUCACCCAUGUGCAUAUGUAUUUAGAUUUAGAAGGCGUCUGAC [E5/18-A3] (Eterna round: R97, puzzle: Exclusion 5)	584
ACAAGCAUUUAGUAAAUGGACAUGAGGAUCACCCAUGUGAGUCCGAAGAGAUAAGAUAUAUUGUCGGCUCGUCUUAU [AK-miRNA-r3-22] (Eterna round: R97, puzzle: Sensor, turn-off variant 1)	55.9
CCGCAGCAAGGAUAUACUUGCGGUGGUGAACGAGGGCUUAUACUUGAGGAUCACCCAAGUAGAAGGUGCAAAAC [Mamaed] (Eterna round: R97, puzzle: Exclusion 2)	33.9

Request: Quick one: apparent KD of MS2 coat protein for UCGGGCGCAGGAUAUGCCUUCCGGUACAUGAGGAUCACCCAUGUCGGGCAGUGCUGCGGAGUAGAAGGGCGUUGAG [Eternabot (L2) Solution 74] (Eterna round: R97, puzzle: Exclusion 5) ?
Result: 15.8
